The measurements presented in this section are drawn from patent US7129250B2.

# Survival % Without Anti-Fas listing for each entry below
tested on: Jurkat cells; assay: Killing of cultured Jurkats with and without anti-Fas; assay type: cell-based, Human; conditions: compound dose 3 (μM), without anti-Fas

Solved entries:
- Smiles data: "Cc1cn(C2=C(c3cn(CCCSC(=N)N)c4ccccc34)C(=O)NC2=O)c2ccccc12"
  Target desc: "Jurkat cells"
  Survival % Without Anti-Fas: ">90%"
- Smiles data: "Cn1cc(C2=C(n3cc(CCCSC(=N)N)c4ccccc43)C(=O)NC2=O)c2ccccc21"
  Target desc: "Jurkat cells"
  Survival % Without Anti-Fas: "50.3%"
- Smiles data: "N=C(N)SCCCn1cc(C2=C(n3ccc4cc(OCc5ccccc5)ccc43)C(=O)NC2=O)c2ccccc21"
  Target desc: "Jurkat cells"
  Survival % Without Anti-Fas: ">90%"
- Smiles data: "Cn1cc(C2=C(n3cc(CCCSC(=N)N)c4ccccc43)C(=O)NC2=O)c2cc(OCc3ccccc3)ccc21"
  Target desc: "Jurkat cells"
  Survival % Without Anti-Fas: "46.1%"
- Smiles data: "N=C(N)SCCCn1cc(C2=C(N3CCc4ccccc43)C(=O)NC2=O)c2ccccc21"
  Target desc: "Jurkat cells"
  Survival % Without Anti-Fas: ">90%"

Give its Survival % Without Anti-Fas value. Item: N=C(N)SCCCn1c2ccccc2c2c3c(n4c5ccccc5cc4c21)C(=O)NC3=O 92.44%

Give its Survival % Without Anti-Fas value. Item: Cc1cc2ccccc2n1C1=C(c2cn(CCCSC(=N)N)c3ccc(OCc4ccccc4)cc23)C(=O)NC1=O >90%

Give its Survival % Without Anti-Fas value. Item: N=C(N)SCCCn1cc(C2=C(n3ccc4ccccc43)C(=O)NC2=O)c2cc(OCc3ccccc3)ccc21 >90%

Give its Survival % Without Anti-Fas value. Item: Cc1cn(C2=C(c3cn(CCCSC(=N)N)c4ccc(OCc5ccccc5)cc34)C(=O)NC2=O)c2ccccc12 >90%
